tested on: Staphylococcus aureus; assay: Antibacterial activity against Staphylococcus aureus isolate 1 by resazurine microtiter assay; type: functional
parameter measured: MIC (µM)

1 = Cn1cc(NC(=O)c2cc(NC(=O)c3ccc(/C=C/c4cnc5ccccc5c4)cc3)cn2C)cc1C(=O)NCCN1CCOCC1 [MGB-BP-3]
2 = COc1cccc(/C=C/c2ccc(C(=O)Nc3cc(C(=O)Nc4cc(C(=O)NCCN5CCOCC5)n(C)c4)n(C)c3)cc2)c1
**Q:** Hey, which is lower on measured MIC, 1 or 2 ? Return value: the label identifying the chosen record.
**A:** 1

====

system: Nucleic Acid; assay: Binding affinity to 5'-GCGATATATGCG-3' DNA sequence in PBS buffer of pH 7.4 assessed as increase in melting temperature by UV-VIS spectrophotometric analysis; assay type: nucleic-acid assay
parameter measured: ΔTm (°C)

// solved cases for ΔTm follow
[
  {
    "compound": "COc1ccc(/C=C/c2ccc(C(=O)Nc3cc(C(=O)Nc4cc(C(=O)NCCN5CCOCC5)n(C)c4)n(C)c3)nc2)cc1",
    "study target": "Nucleic Acid",
    "quantitative result": 16
  },
  {
    "compound": "COc1ccc(/C=C/c2ccc(C(=O)Nc3cc(C(=O)Nc4cc(C(=O)NCCN5CCOCC5)n(C(C)C)c4)n(C)c3)nc2)cc1",
    "study target": "Nucleic Acid",
    "quantitative result": 16
  },
  {
    "compound": "CCC(C)n1cc(NC(=O)c2ccc(/C=C/c3cnc4ccccc4c3)cc2)cc1C(=O)Nc1cc(C(=O)NCCN2CCOCC2)n(C)c1 (stereo not given)",
    "study target": "Nucleic Acid",
    "quantitative result": 15
  },
  {
    "compound": "Cn1cc(NC(=O)c2cc(NC(=O)c3ccc(/C=C/c4cnc5ccccc5c4)cc3)cn2C)cc1C(=O)NCCN1CCOCC1",
    "study target": "Nucleic Acid",
    "quantitative result": 19
  },
  {
    "compound": "CCC(C)n1cc(NC(=O)c2cc(NC(=O)c3ccc(/C=C/c4cnc5ccccc5c4)cc3)cn2C)cc1C(=O)NCCN1CCOCC1 (stereo not given)",
    "study target": "Nucleic Acid",
    "quantitative result": 0
  }
]

P = CC(C)n1cc(NC(=O)c2cc(NC(=O)c3ccc(/C=C/c4cnc5ccccc5c4)cc3)cn2C)cc1C(=O)NCCN1CCOCC1
Q = CC(C)n1cc(NC(=O)c2ccc(/C=C/c3cnc4ccccc4c3)cc2)cc1C(=O)Nc1cc(C(=O)NCCN2CCOCC2)n(C)c1
**Q:** Hey, which is lower on measured ΔTm, P or Q ? Return value: the label identifying the chosen record.
**A:** P
(P: 10 °C, Q: 18 °C)

a = CCC(C)n1cc(NC(=O)c2cc(NC(=O)c3ccc(/C=C/c4ccc(OC)cc4)cn3)cn2C)cc1C(=O)NCCN1CCOCC1 (stereo not given)
b = COc1ccc(/C=C/c2ccc(C(=O)Nc3cc(C(=O)Nc4cc(C(=O)NCCN5CCOCC5)n(C)c4)n(C(C)C)c3)nc2)cc1
**Q:** Hey, which is lower on measured ΔTm, a or b ? Return value: the label identifying the chosen record.
**A:** a

From: ChEMBL document CHEMBL1909638
